Target: T1, HLA-DRB1*0301 (human)
T1 construct: purified MHC class II molecule; also called DR3
Assay: competition with 125I-labelled standard peptide, purified HLA-DR, gel filtration
Consider the following binders and their measured IC50 readings.
State the answer as a number, implicitly in µM.

The measured IC50 associated with YRSLLEDDDMGDLVD [Her2/neu.1005] reads 4.76

The measured IC50 associated with SLSFLQDIQEVQGYV [Her2/neu.70] reads 5.77

The measured IC50 associated with ARLLDIDETEYHADG [Her2/neu.867] reads 0.968
